Assay: in vivo
Parameters: species or system female C3H/HeN mice
Conditions: mouse, plasma, iv, 40 mg/kg, 40 mg.kg^-1 i.v., 15 min after dose, MEAN, read-out: Plasma product Ic concentration
experimentalEndpoint: concentration at 0.25 h (ng/mL)

- structureSmilesString: "CO[C@H]1C(=O)[C@]2(C)[C@@H](OC)C[C@H]3OC[C@@]3(OC(C)=O)[C@H]2[C@H](OC(=O)c2ccccc2)[C@]2(O)C[C@H](OC(=O)[C@H](O)[C@@H](NC(=O)OC(C)(C)C)c3ccccc3)C(C)=C1C2(C)C"
  endpointResult: 20500

* * *

Test: in vivo
Set-up: species or system female C3H/HeN mice
Conditions: iv; Brain; mouse, 40 mg.kg^-1 i.v.; read-out: Terminal T1/2 (converted)

- structureSmilesString: "CO[C@H]1C(=O)[C@]2(C)[C@@H](OC)C[C@H]3OC[C@@]3(OC(C)=O)[C@H]2[C@H](OC(=O)c2ccccc2)[C@]2(O)C[C@H](OC(=O)[C@H](O)[C@@H](NC(=O)OC(C)(C)C)c3ccccc3)C(C)=C1C2(C)C"
  half-life, h: 31.4
